- Test system: RXRa homodimer (NR concentration 180 nM)
- experiment_summary: PBM binding z-score (relative to random genomic background probes); higher = stronger binding; sequences stand for … in GC…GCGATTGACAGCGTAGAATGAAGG
Binning of PBM binding z-score into classes: low (below 0.6), mid (0.6 to below 3), high (3 or more)

CGAACTAGGTCATCCAGTACAGTGAATACATTGA : mid
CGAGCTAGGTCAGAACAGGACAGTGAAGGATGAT : mid
CGAACTAGGTCAAGGACACTGAATCTCCGCACGC : mid
CCGACTGGGCCAAAGGTTACCATACTCAGTACGA : high
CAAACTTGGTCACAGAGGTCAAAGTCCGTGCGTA : high
CTCGATAGGTCGGTTGAGGTGAGTATACGGATAA : low
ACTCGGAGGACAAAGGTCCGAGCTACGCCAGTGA : low
AGAATGACGTTAAGATCAGGGAAACAGAATACAT : low

Query string: Lab log: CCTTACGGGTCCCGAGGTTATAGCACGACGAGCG — assign PBM binding z-score category
Result string: mid

Query string: Which bin, given its PBM binding z-score, does CCTAGCAGGCCAGGGTCATTCAAGCATTTCGCTT occupy?
Result string: high

Query string: Each sequence maps to one class by PBM binding z-score. Which class for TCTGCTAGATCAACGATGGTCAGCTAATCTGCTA ?
Result string: low

These data points were gathered from the supplement of paper PMC6555819.
